- Test system: pseudotyped lentiviruses harboring S-protein of SARS-CoV-2
- Method description: microbe, parasite or virus in culture
- Assay type: cell-based
- Measurement setup: Severe acute respiratory syndrome coronavirus 2, 24 h
Quantity: pIC50
Answers are plain numbers, as −log10 of the molar value.

Field: example entries. Status: answers known.
INSERT INTO assay_data (molecule, quantity, readout_value) VALUES
  ('CN(C)CCCN1c2ccccc2Sc2ccc(Cl)cc21 [Chlorpromazine]', 'pIC50', 6.01),
  ('O=c1[nH]c2ccccc2n1C1CCN(CCCC(c2ccc(F)cc2)c2ccc(F)cc2)CC1 [Pimozide]', 'pIC50', 5.34),
  ('CN(C)CCCN1c2ccccc2CCc2ccccc21 [Imipramine]', 'pIC50', 5.52),
  ('CN(C)CCCC1(c2ccc(F)cc2)OCc2cc(C#N)ccc21 (stereo not drawn) [Citalopram]', 'pIC50', 4.56),
  ('Fc1ccc([C@@H]2CCNC[C@H]2COc2ccc3c(c2)OCO3)cc1 [Paroxetine]', 'pIC50', 4.90);

Fill in pIC50 for each of the 4 molecules listed.
1. CCOc1ccccc1OC(c1ccccc1)C1CNCCO1 (stereo not drawn) [Reboxetine]
2. CNCCCN1c2ccccc2CCc2ccccc21 [Desipramine]
3. COc1ccc(C(CN(C)C)C2(O)CCCCC2)cc1 (stereo not drawn) [Venlafaxine]
4. OCCN1CCN(CCC=C2c3ccccc3Sc3ccc(C(F)(F)F)cc32)CC1 [Flupenthixol]

Output line:
1: 4.75; 2: 5.09; 3: 4.44; 4: 5.97

====

- System: pseudotyped lentiviruses harboring S-protein of SARS-CoV-2
- Method description: microbe, parasite or virus in culture
- Format: cell-based
Record form. Attribute: selectivity index (SI). Fill in for each entry.
Give bare numbers.

INSERT INTO assay_data (molecule, readout_value) VALUES
  ('Fc1ccc([C@@H]2CCNC[C@H]2COc2ccc3c(c2)OCO3)cc1', 1.76);

Fill in selectivity index (SI) for each of the 3 molecules listed.
1. CN(C)CCCN1c2ccccc2CCc2ccccc21
2. CN(C)CCCC1(c2ccc(F)cc2)OCc2cc(C#N)ccc21 (stereo not shown)
3. OCCN1CCN(CCC=C2c3ccccc3Sc3ccc(C(F)(F)F)cc32)CC1

Output line:
1: 22.83; 2: 9.97; 3: 18.11

# credit: paper PMC8809408
